Provenance of the data: patent US20130129746A1

For each record, write down the corresponding Kd.
biological target: T1, mouse serum albumin (mouse, UniProt P07724 25-608); assay: BIAcore SPR;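 further: purified dAbs run at 1 µM, 500 nM and 50 nM over human, cynomolgus, mouse and rat serum albumin in BIAcore binding measurements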
T1 construct: mature; purified protein on CM5 chips for BIAcore; also called MSA; mouse SA
T1 sequence (P07724 25-608): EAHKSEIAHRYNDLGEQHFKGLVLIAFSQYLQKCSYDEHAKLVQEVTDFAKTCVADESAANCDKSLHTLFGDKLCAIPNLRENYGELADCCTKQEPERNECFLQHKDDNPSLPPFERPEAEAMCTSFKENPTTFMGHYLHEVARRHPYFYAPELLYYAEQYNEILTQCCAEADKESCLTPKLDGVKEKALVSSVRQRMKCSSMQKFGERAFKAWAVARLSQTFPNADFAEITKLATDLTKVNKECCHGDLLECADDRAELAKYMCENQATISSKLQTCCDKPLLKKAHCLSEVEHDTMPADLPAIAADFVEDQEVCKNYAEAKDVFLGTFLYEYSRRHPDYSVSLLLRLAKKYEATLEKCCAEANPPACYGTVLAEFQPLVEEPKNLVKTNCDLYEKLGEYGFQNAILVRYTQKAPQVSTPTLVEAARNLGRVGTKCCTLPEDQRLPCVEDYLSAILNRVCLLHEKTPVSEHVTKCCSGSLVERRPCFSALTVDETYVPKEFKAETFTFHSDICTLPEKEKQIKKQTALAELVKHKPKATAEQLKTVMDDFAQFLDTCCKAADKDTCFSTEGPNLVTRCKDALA
// note: answer is a bare numeric in nM

Task: Fill in Kd for record DOM7h-11-19 (other) VL: DIQMTQSPSSLSASVGDRVTITCRASRPIGTMLSWYQQKPGKAPKLLILFGSRLQSGVPSRFSGSGSGTDFTLTISSLQPEDFATYYCAQTGTHPTTFGQGTKVEIKR
Result: 100

Task: For DOM7h-11-15 (other) VL: DIQMTQSPSSLSASVGDRVTITCRASRPIGTMLSWYQQKPGKAPKLLILAFSRLQSGVPSRFSGSGSGTDFTLTISSLQPEDFATYYCAQAGTHPTTFGQGTKVEIKR , write its Kd.
Result: 10
